- TARGET OR SYSTEM: T1, Clostridium difficile toxin A (TcdA) (Clostridium difficile, UniProt P16154 1-2710)
- T1 construct: mature; also called full-length TcdA
- T1 sequence (P16154 whole entry): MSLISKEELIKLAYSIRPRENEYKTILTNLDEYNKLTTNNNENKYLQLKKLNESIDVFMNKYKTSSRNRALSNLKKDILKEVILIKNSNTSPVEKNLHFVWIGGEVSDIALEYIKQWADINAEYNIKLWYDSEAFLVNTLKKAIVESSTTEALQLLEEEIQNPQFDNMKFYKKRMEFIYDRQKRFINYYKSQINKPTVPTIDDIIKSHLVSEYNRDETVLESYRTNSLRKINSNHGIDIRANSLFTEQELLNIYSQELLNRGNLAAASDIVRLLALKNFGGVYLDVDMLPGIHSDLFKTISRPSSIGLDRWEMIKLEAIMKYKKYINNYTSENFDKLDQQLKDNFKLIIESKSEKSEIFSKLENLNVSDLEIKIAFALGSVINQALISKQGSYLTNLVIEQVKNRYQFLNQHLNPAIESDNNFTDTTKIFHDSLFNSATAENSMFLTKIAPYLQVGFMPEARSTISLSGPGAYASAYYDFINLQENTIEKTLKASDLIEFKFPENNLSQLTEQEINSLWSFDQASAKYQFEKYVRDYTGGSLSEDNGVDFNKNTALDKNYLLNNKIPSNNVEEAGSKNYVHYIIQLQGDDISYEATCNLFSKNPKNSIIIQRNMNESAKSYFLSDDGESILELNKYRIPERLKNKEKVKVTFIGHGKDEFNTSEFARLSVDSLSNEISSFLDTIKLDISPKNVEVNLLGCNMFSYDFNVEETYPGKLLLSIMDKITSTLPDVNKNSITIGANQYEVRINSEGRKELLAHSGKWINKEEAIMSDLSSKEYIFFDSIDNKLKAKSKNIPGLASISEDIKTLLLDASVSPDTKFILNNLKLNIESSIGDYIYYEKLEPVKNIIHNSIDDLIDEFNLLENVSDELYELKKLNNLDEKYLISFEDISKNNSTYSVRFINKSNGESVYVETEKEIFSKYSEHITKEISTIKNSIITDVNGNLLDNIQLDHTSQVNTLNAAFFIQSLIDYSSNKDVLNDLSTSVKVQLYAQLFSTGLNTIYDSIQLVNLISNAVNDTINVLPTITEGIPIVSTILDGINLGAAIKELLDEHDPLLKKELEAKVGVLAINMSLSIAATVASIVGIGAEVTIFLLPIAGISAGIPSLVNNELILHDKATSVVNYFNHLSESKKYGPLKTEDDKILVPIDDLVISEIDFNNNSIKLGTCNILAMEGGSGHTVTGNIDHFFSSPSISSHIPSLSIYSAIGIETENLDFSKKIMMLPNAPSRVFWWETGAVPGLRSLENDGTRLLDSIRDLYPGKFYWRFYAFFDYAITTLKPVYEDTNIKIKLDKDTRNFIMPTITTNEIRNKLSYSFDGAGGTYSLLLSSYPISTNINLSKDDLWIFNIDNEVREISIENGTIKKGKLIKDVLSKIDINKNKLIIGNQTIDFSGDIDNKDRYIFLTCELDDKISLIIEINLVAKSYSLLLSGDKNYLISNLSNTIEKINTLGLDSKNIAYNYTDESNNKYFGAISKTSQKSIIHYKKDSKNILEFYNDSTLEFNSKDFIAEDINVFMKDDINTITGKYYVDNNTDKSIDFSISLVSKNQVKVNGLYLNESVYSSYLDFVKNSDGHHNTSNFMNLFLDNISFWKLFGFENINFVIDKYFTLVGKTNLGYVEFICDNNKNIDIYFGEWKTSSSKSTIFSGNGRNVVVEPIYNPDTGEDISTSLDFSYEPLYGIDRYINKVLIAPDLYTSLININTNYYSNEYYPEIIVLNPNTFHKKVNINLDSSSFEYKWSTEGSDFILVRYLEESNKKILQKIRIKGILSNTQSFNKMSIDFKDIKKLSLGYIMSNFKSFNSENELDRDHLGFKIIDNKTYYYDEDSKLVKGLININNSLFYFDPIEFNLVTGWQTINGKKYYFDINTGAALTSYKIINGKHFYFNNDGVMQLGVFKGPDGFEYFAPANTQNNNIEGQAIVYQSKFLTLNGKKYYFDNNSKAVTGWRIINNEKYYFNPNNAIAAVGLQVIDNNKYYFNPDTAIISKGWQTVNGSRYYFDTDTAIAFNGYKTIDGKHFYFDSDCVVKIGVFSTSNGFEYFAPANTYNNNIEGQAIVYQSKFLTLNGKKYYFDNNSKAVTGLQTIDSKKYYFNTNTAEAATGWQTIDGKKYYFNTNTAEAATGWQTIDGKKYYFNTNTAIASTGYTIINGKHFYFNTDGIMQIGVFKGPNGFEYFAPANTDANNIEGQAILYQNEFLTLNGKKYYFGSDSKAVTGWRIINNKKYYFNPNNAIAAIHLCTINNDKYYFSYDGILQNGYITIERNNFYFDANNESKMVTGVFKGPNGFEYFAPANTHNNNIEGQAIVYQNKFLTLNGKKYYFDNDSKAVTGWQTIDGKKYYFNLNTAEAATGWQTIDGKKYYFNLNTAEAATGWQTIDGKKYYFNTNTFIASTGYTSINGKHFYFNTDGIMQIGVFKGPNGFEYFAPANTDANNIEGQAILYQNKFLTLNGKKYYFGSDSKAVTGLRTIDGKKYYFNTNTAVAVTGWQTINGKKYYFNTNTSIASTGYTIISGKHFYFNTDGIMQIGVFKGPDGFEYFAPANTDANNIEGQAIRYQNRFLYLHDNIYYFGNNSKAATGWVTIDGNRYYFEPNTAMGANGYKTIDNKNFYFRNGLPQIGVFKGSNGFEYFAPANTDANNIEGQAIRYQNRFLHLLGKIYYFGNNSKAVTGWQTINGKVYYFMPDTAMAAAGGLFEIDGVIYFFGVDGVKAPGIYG
- PROTOCOL TEXT: SPR (Biacore 3000), VHH over immobilized TcdA; binding free energy difference relative to parent VHH
TEST READOUT: ΔΔG (kcal/mol)
Numeric answer only, unit kcal/mol assumed.

Consider the worked cases shown below.
- BINDER: "A26.8-T58K (VHH, not shown: small tags and cut ends) VHH: QVKLEESGGGLVQAGGSLRLSCAASERTFSRYPVAWFRQAPGAEREFVAVISSTGTSKYYADSVKGRFTISRDNAKVTVYLQMNNLKREDTAVYFCAVNSQRTRLQDPNEYDYWGQGTQVTVSS"
  UNIT OF MEASUREMENT: "kcal/mol"
  ΔΔG: -0.19
- BINDER: "A26.8-Q101K,T103K (VHH, not shown: small tags and cut ends) VHH: QVKLEESGGGLVQAGGSLRLSCAASERTFSRYPVAWFRQAPGAEREFVAVISSTGTSTYYADSVKGRFTISRDNAKVTVYLQMNNLKREDTAVYFCAVNSKRKRLQDPNEYDYWGQGTQVTVSS"
  UNIT OF MEASUREMENT: "kcal/mol"
  ΔΔG: -0.48
- BINDER: "A26.8 VHH mutant E110Q (VHH, not shown: small tags and cut ends) VHH: QVKLEESGGGLVQAGGSLRLSCAASERTFSRYPVAWFRQAPGAEREFVAVISSTGTSTYYADSVKGRFTISRDNAKVTVYLQMNNLKREDTAVYFCAVNSQRTRLQDPNQYDYWGQGTQVTVSS"
  UNIT OF MEASUREMENT: "kcal/mol"
  ΔΔG: 0.34

Exam item: Dear colleague, I am looking for the recorded ΔΔG of the following binder: A26.8-Q101K (VHH, not shown: small tags and cut ends) VHH: QVKLEESGGGLVQAGGSLRLSCAASERTFSRYPVAWFRQAPGAEREFVAVISSTGTSTYYADSVKGRFTISRDNAKVTVYLQMNNLKREDTAVYFCAVNSKRTRLQDPNEYDYWGQGTQVTVSS
Marked response: -0.52
